# assay_overview: Growth inhibition of bovine BAEC by MTT assay
# Type: functional, cell-based
# assay_context: Bos taurus
Could you please report measured IC50 for the items listed next?
Response body: numeric value in µM, unit text excluded.

What IC50 value was documented for this compound, OC[C@@H]1[C@@H](O)[C@H](O)[C@@H](O)CN1CCCCCCOc1cccc(-c2cnn[nH]2)c1 ?
610

Entry to check: OC[C@@H]1[C@@H](O)[C@H](O)[C@@H](O)CN1CCCCOc1cccc(-c2cnn[nH]2)c1
797

Entry to check: OC[C@@H]1[C@@H](O)[C@H](O)[C@@H](O)CN1CCCCCCCCOc1cccc(-c2cnn[nH]2)c1
105

Entry to check: COc1cccc(-c2cnn[nH]2)c1
347

###

Target chain: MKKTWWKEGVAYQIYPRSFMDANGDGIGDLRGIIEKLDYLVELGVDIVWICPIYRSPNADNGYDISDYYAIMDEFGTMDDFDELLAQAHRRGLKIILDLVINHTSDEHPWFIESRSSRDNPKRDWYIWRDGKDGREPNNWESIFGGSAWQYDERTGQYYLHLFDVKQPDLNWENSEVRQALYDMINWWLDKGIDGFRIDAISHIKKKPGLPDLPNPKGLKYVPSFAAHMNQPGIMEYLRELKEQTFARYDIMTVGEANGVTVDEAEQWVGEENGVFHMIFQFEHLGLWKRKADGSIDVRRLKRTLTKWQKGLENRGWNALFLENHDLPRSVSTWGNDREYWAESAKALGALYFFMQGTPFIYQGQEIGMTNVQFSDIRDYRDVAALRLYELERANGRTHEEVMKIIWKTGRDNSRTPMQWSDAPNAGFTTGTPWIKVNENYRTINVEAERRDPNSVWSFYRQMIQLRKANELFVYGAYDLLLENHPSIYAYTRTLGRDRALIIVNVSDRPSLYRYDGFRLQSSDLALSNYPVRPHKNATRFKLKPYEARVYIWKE
Could you please report measured pIC50 for the items listed next?
Remember the convention: pIC50 equals -log10 of concentration in molar.

What pIC50 value was documented for this compound, OC[C@@H]1[C@@H](O)[C@H](O)[C@@H](O)CN1CCCCOc1cccc(-c2cnn[nH]2)c1 ?
5.22

Entry to check: OC[C@@H]1[C@@H](O)[C@H](O)[C@@H](O)CN1CCCCCCCCOc1cccc(-c2cnn[nH]2)c1
5.94

Source of measurements: ChEMBL document CHEMBL1140836
